- assay: Pharmacokinetic studies (oral, intravenous, food effect)
- experimental.parameters: human, in vivo, iv
reported.property: Vd

Task: Fill in: Vd of `CN1CCN2c3c(cccc31)[C@@H]1CN(CCCC(=O)c3ccc(F)cc3)CC[C@@H]12` is ___
Output: ~4.1 L/kg

====

- assay: Pharmacokinetic studies (oral, intravenous, food effect)
- experimental.parameters: human, plasma, oral, delay of median Tmax by food, high-fat meal
reported.property: Tmax

Task: Param item = `CN1CCN2c3c(cccc31)[C@@H]1CN(CCCC(=O)c3ccc(F)cc3)CC[C@@H]12` ; retrieve measured Tmax.
Output: ~1 h

====

- assay: Pharmacokinetic studies (oral, intravenous, food effect)
- experimental.parameters: human, in vivo, iv
reported.property: clearance

Task: Returns the measured clearance for the input molecule. Input: CN1CCN2c3c(cccc31)[C@@H]1CN(CCCC(=O)c3ccc(F)cc3)CC[C@@H]12 [Lumateperone]
Output: ~465 mL/min
